Biological target: F508del in NIH 3T3 cells (Homo sapiens, UniProt P13569, DEL508-508)
Construct: expressed in transfected cells
Sequence (P13569 with tags, fused parts or gaps DEL508-508): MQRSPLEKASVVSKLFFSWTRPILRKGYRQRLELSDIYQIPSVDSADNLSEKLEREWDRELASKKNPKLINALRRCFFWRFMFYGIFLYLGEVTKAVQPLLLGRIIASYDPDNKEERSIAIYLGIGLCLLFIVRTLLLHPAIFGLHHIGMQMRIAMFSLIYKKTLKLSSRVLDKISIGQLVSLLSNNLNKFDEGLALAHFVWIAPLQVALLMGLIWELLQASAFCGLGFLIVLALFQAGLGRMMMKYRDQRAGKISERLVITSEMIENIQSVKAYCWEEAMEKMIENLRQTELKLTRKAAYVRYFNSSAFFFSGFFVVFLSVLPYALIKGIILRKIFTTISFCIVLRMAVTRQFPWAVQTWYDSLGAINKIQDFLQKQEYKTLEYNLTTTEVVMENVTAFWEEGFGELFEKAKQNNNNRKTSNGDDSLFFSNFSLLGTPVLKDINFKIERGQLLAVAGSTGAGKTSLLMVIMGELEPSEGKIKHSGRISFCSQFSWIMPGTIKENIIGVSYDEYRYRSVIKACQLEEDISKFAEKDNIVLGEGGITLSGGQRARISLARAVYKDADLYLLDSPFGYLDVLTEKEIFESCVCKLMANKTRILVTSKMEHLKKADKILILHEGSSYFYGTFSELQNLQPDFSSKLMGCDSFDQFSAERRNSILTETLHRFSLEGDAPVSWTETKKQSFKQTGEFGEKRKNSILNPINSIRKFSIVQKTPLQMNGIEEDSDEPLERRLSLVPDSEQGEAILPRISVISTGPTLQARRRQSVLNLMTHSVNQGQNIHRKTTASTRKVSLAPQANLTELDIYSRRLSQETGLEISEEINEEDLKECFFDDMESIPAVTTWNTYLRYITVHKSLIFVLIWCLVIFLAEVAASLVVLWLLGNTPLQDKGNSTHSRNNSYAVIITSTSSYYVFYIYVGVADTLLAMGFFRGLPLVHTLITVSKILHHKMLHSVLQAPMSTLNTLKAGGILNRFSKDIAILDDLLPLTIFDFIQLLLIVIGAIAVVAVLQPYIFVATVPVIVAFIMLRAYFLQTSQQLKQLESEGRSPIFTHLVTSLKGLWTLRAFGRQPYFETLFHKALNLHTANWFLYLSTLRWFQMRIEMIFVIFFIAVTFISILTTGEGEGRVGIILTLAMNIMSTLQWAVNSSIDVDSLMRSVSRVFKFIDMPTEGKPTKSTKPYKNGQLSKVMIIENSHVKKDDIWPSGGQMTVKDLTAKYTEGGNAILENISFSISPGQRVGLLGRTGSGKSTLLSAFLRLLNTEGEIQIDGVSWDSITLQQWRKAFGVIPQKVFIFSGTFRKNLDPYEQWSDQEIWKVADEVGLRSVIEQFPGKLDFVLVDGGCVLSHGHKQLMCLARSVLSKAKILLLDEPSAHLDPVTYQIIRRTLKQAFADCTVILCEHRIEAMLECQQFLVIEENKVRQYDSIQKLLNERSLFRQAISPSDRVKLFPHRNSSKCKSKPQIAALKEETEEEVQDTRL
Assay: 3T3 assay: membrane potential optical assay for F508del correction
Type: cell-based
Settings: NIH 3T3 cells, F508del; read-out: 3T3 EC50
MEASURE NAME: EC50

CPD SMILES: Cc1sc(NS(=O)(=O)c2ccccc2)nc1-c1ccccc1
READING: 3 to 30 µM

# input for lookup
Which EC50 is listed for O=S(=O)(Nc1cc(Oc2ccccc2)cc(Oc2ccccc2)n1)c1ccccc1 ?
1 to 3 µM

----------
In this section we review reported Emax values for a set of molecules.
Molecular target: F508del in NIH 3T3 cells (Homo sapiens, UniProt P13569, DEL508-508)
Construct: expressed in transfected cells
Assay: 3T3 assay: membrane potential optical assay for F508del correction
Type: cell-based
Settings: NIH3T3; NIH 3T3 cells, F508del; read-out: 3T3 Max Activity (%)

Known Emax results, listed for orientation:
MOLECULE: O=S(=O)(Nc1ncc(Cc2cnccn2)s1)c1ccccc1
READING: < 30%

MOLECULE: O=S(=O)(Nc1nn(Cc2ccccc2)cc1-c1ccccc1)c1ccccc1
READING: < 30%

MOLECULE: Cc1cc(C)c(-n2nc(NS(=O)(=O)c3ccccc3)cc2C(C)C)c(C)c1
READING: 30 to 60%

MOLECULE: CC(C)=Cc1cc(NS(=O)(=O)c2ccccc2)nn1-c1c(C)cc(C)cc1C
READING: > 60%

MOLECULE: COCCNC(=O)c1sc(NS(=O)(=O)c2ccccc2)nc1-c1ccccc1
READING: < 30%

Any idea what Emax was measured for Cc1cc(C)cc(-c2cc(C)cc(NS(=O)(=O)c3ccccc3)n2)c1 ?
30 to 60%

Please answer likewise for CC(C)=Cc1cn(Cc2ccccc2)nc1NS(=O)(=O)c1ccccc1
< 30%

Try this molecule too: Cn1cc(S(=O)(=O)Nc2nn(-c3ccccc3)cc2Cc2ccccc2)cn1
< 30%
